meta.source: paper PMC9124438

test system: OVCAR-3; test: Sulforhodamine B antiproliferative assay, OVCAR-3; format: cell-based, human; details: OVCAR-3, wtBRCA1-expressing cells; Sulforhodamine B; 48 h; mean ± SD

compound: N.N.[Cl][Pt][Cl] [Cisplatin]
tested_on: OVCAR-3
IC50: 3.2 µM

* * *

system: MDA-MB-231; experiment: Sulforhodamine B antiproliferative assay, MDA-MB-231; format: cell-based, human; conditions: MDA-MB-231, BRCA1 LOH cells; Sulforhodamine B; 48 h; mean ± SD
attribute_measured: IC50 (µM)

compound: N.N.[Cl][Pt][Cl] [Cisplatin]
tested_on: MDA-MB-231
value_units: µM
result_value: 12.1
